Where do these numbers come from? They come from the nanobody polyreactivity screen of Harvey et al. (2022).

assay: yeast display, Sf9 membrane polyspecificity reagent, FACS + sequencing; frameworks hold sequencing errors
measurement kind: polyreactivity (PSR sort gate)

Reported polyreactivity (PSR sort gate) for QVQLVESGGGLVQAGGSLRLSCAASGNTFYGYARGWYRQAPGKERELVASITLSGDSTYYADSVKGRFTISRDNAKNTVYLPMNSLKPEDTAVYYCNADWYFQYPYDYWGQGTQVTVSS : what is it?
low polyreactivity

Thanks! And QVQLVESGGGLVQAGGSLRLICAASGSIFVYNAMGWYRQAPGKERELVAAISQRGGSTYYADSVKGRFTISRDNAKNTVYLQMNSLKPEDTAVYYCAAGPGDSGDDYWGQGTQVTVSS ?
low polyreactivity

What do we get for QVQLVESGGGLVQAGGSLRLSCAASGRTFCSYTKAWYRQAPGKERELVAAISSGGSTTYADSVKGRFTISRDNAKNTVYLQLNSLKPEDTAVYYCATRAVWSSWGRRYDPWGQGTQVTVSS ?
high polyreactivity

How about QVQLVESGGGLVQAGGSLRLSCAASGYIFRYNEMGWYRQAPGKERALVAAIRATGGSTYYADSVKGRFTISRDNAKNTVYLQMNSLKPEDTAVYYCNAGGQGRTYRYYYWGQGTQVTVSS ?
high polyreactivity

Can you handle QVQLGESGGGLVQAGGSLRLSCAASGRIFPVNAMGWYRQAPGKERELVATITSYSSTYADSVKGRFTISRDNAMNTVVLQMNCLKPEDTAVYYCNADQGYFGYDYWGQGTQVTVSS next?
low polyreactivity

Repeat for the following sequence: QVHLQGSGGGLVQAGGSLRLSCAASGYIFQNDPMGWNLQAPGKERELVAGIDNGTSTNYADSVNGRFTISRDNAKNTVYLQMNSLKPEDTAVYYCSAAGQADDTLGYWGQGTEVTVSS
low polyreactivity

Entry to check: QVQLVESGGGLVQAGGSLRLSCAASGRIFSYYAMGWYRQAPGKERELVAAISRTGGTTYYADSVKGRFTISRDNAKNTVYLQMNSLNPEDTAVYYCYAVKAPYMRYDYWGQGTQVTVSS
high polyreactivity

Another sequence: QVQLVESGGGLVQAGGSLSLSCAATGSIITSNAMGWYRQAPGKERELVAAISWSGSRTFYADSVKGRFTISRDNEKNTVYLQMNSLKPEDTAVYYCAAGNRKWKMGYWGQGTQVTVSS
high polyreactivity

QVQLVESGGGLVQAGGSLRLSCAASGFIFLPNDMGWYRQAPGKEREFVAAIDWSGGSTYYADSVKGRFTISRDNAKNTVYLQMNSLKPEDTAVYYCNAEGRRVGFRIDYDYWGQGTQVTVSS ?
low polyreactivity

Lookup QVQLVESGGGLVQAGGTLRLSCSASGRTFPGYAMGWYRQAPGKERELVAVISLSGGRTNYADSVKGRFTISRDNAKNTVFLLMNSLKPEDTAVYYCAGRYHGHSNDYWGQGTQVTVSS
low polyreactivity

// switching to the query sequence
Could you tell me which polyreactivity (PSR sort gate) is on file for QVQLVESGGGLVQAGGSLRLRCAASGRNIHWYAMGWSRQAPGKEMELVAAITGSGGRTSYADSVKGRFTISRDFAKNTVYLQMNSLKPQDTAVYYCAKRATWYTVPREGYWGQGTQVTVSS ?
high polyreactivity
